Assay: Solubility of dyes in refrigeration oils
Settings: Table I, Suniso 3GS refrigeration oil
For each entry below, report its Oil Sol. In 3GS value.
Numbers only, in %.

CCCCCCCCNc1ccc(NCCCCCCCC)c2c1C(=O)c1ccccc1C2=O : 0.5
CN(c1ccccc1)c1ccc(N(C)c2ccccc2)c2c1C(=O)c1ccccc1C2=O : 0.1
CCOc1ccc(N(C)c2ccc(N(C)c3ccc(OCC)cc3)c3c2C(=O)c2ccccc2C3=O)cc1 : 0.1
CCCCc1ccc(Nc2cc(C)c(Nc3ccc(CCCC)cc3)c3c2C(=O)c2ccccc2C3=O)cc1 : 1.0

Let us move to another entry and its Oil Sol. In 3GS.
Answer with the recorded Oil Sol. In 3GS for the molecule listed here: O=C1c2ccccc2C(=O)c2c(Nc3ccc(C4CCCCC4)cc3)ccc(Nc3ccc(C4CCCCC4)cc3)c21
0.1

Source of measurements: patent US4369120A
